# System: HSV-1
# Method Description: HSV Antiviral (ELISA) Assay
# Assay type: cell-based, herpes simplex virus type 1
# Run Parameters: Human alphaherpesvirus 1, Vero cells, HSV-1, about 24 hours post-infection, read-out: IC50 (ug/ml) HSV
molecules and their reported IC50

[
  {
    "Molecule": "CC(NC(=S)Nc1ccc(NC(=O)c2ccccc2F)cc1)c1ccnc2ccccc12 (centres unmarked) [Example 1096]",
    "Experimental System": "HSV-1",
    "IC50": "> 10 µg/mL"
  },
  {
    "Molecule": "CC(NC(=S)Nc1ccc(NC(=O)c2ccccc2F)cc1)c1nccc2ccccc12 (centres unmarked) [Example 1098]",
    "Experimental System": "HSV-1",
    "IC50": "9 µg/mL"
  }
]

Q: Quick one: IC50 for Cc1ccc(S(=O)(=O)n2c(C(C)NC(=S)Nc3ccc(NC(=O)c4ccccc4F)cc3)cc3ccccc32)cc1 (centres unmarked) [Example 1094] ?
A: > 10 µg/mL

Q: Likewise for CC(NC(=S)Nc1ccc(NC(=O)c2ccccc2F)cc1)c1nccs1 (centres unmarked) [Example 1093] ?
A: > 10 µg/mL

Q: Likewise for CC(NC(=S)Nc1ccc(NC(=O)c2ccccc2F)cc1)c1ccco1 (centres unmarked) [Example 802] ?
A: > 10 µg/mL

Q: Likewise for O=C(Nc1ccc(NC(=S)Nc2ccncc2)cc1)c1ccccc1F [Example 444] ?
A: 8 µg/mL

Q: Likewise for O=C(Nc1ccc(NC(=S)Nc2cccnc2)cc1)c1ccco1 [Example 429] ?
A: > 10 µg/mL

Q: Likewise for CC(NC(=S)Nc1ccc(NC(=O)c2ccccc2F)cc1)c1cnc2ccccc2c1 (centres unmarked) [Example 1100] ?
A: > 10 µg/mL

Q: Likewise for O=C(Nc1ccc(NC(=S)NCc2cccnc2)cc1)c1ccccc1F [Example 632] ?
A: > 10 µg/mL

Q: Likewise for CC(C)(C)n1ccnc1NC(=S)Nc1ccc(NC(=O)c2ccccc2F)cc1 [Example 593] ?
A: 10 µg/mL

Q: Likewise for O=C(Nc1ccc(NC(=S)Nc2ccc(Cl)nc2)cc1)c1csnn1 [Example 471] ?
A: > 10 µg/mL

Q: Likewise for O=C(Nc1ccc(NC(=S)NCc2ccncc2)cc1)c1ccccc1F [Example 658] ?
A: 10 µg/mL

Q: Likewise for CC(NC(=S)Nc1ccc(NC(=O)c2ccccc2F)cc1)c1ccc2ncccc2c1 (centres unmarked) [Example 1099] ?
A: > 10 µg/mL

Q: Likewise for O=C(Nc1ccc(NC(=S)Nc2ccccn2)cc1)c1ccco1 [Example 426] ?
A: > 10 µg/mL
